assay: PK study in rats (intravenous and oral); assay type: in vivo; details: male, Sprague-Dawley, rat, plasma, intravenous 3 mg/kg
quantity: AUC(0-inf) (ng·h/mL)
Field format: number, assumed ng·h/mL, no unit text.

### Prompt Look at this molecule and give its reported AUC(0-inf). COc1cc2nccc(Oc3ccc(NC(=O)NC4CC4)c(Cl)c3)c2cc1C(N)=O
### Response 30100

----------
test: PK study in mice (intravenous and oral); assay type: in vivo; conditions: female, BALB/cAnNCrj-nu/nu, mouse, plasma, oral 30 mg/kg
quantity: MRT (h)
Field format: number, assumed h, no unit text.

### Prompt Look at this compound and give its reported MRT. COc1cc2nccc(Oc3ccc(NC(=O)NC4CC4)c(Cl)c3)c2cc1C(N)=O
### Response 3.29

----------
assay: PK study in mice (intravenous and oral); type: in vivo; conditions: female, BALB/cAnNCrj-nu/nu, mouse, plasma, oral 30 mg/kg
quantity: Cmax (ng/mL)
Field format: number, assumed ng/mL, no unit text.

### Prompt Look at this compound and give its reported Cmax. COc1cc2nccc(Oc3ccc(NC(=O)NC4CC4)c(Cl)c3)c2cc1C(N)=O [lenvatinib, Lenvatinib]
### Response 31300

----------
assay: PK study in monkeys (intravenous and oral); assay type: in vivo, cynomolgus monkeys; conditions: male, cynomolgus monkey, plasma, intravenous 3 mg/kg
quantity: half-life (h)
Field format: number, assumed h, no unit text.

### Prompt Look at this compound and give its reported half-life. COc1cc2nccc(Oc3ccc(NC(=O)NC4CC4)c(Cl)c3)c2cc1C(N)=O
### Response 4.28

----------
assay: PK study in mice (intravenous and oral); format: in vivo; details: female, BALB/cAnNCrj-nu/nu, mouse, plasma, intravenous 3 mg/kg, read-out: Vdss
quantity: Vd (L/kg)
Field format: number, assumed L/kg, no unit text.

### Prompt Look at this compound and give its reported Vd. COc1cc2nccc(Oc3ccc(NC(=O)NC4CC4)c(Cl)c3)c2cc1C(N)=O [lenvatinib, Lenvatinib]
### Response 0.714

----------
experiment: PK study in mice (intravenous and oral); type: in vivo; settings: female, BALB/cAnNCrj-nu/nu, mouse, plasma, intravenous 3 mg/kg
quantity: MRT (h)
Field format: number, assumed h, no unit text.

### Prompt Look at this compound and give its reported MRT. COc1cc2nccc(Oc3ccc(NC(=O)NC4CC4)c(Cl)c3)c2cc1C(N)=O
### Response 2.07

----------
experiment: PK study in rats (intravenous and oral); assay type: in vivo; conditions: male, Sprague-Dawley, rat, plasma, intravenous 3 mg/kg
quantity: MRT (h)
Field format: number, assumed h, no unit text.

### Prompt Look at this molecule and give its reported MRT. COc1cc2nccc(Oc3ccc(NC(=O)NC4CC4)c(Cl)c3)c2cc1C(N)=O [lenvatinib, Lenvatinib]
### Response 3.93

----------
test: PK study in rats (intravenous and oral); type: in vivo; details: male, Sprague-Dawley, rat, plasma, oral 3 mg/kg
quantity: Cmax (ng/mL)
Field format: number, assumed ng/mL, no unit text.

### Prompt Look at this molecule and give its reported Cmax. COc1cc2nccc(Oc3ccc(NC(=O)NC4CC4)c(Cl)c3)c2cc1C(N)=O
### Response 6170

----------
tested on: plasma protein; assay: in vitro plasma protein binding, rats; format: in vitro ADME; conditions: rat, plasma; rats, 0.3–30 μg/mL; read-out: average fp (unbound fraction in plasma)
quantity: fraction unbound
When you answer, write just the number.

### Prompt Please state recorded fraction unbound (tested on plasma protein) of COc1cc2nccc(Oc3ccc(NC(=O)NC4CC4)c(Cl)c3)c2cc1C(N)=O
### Response 0.02

----------
assay: PK study in mice (intravenous and oral); type: in vivo; details: female, BALB/cAnNCrj-nu/nu, mouse, plasma, po, 30 mg/kg, across 3, 10, and 30 mg/kg
quantity: half-life

### Prompt Look at this compound and give its reported half-life. COc1cc2nccc(Oc3ccc(NC(=O)NC4CC4)c(Cl)c3)c2cc1C(N)=O [lenvatinib, Lenvatinib]
### Response 1.74 to 2.09 h

----------
experiment: Cross-species PK summary (mice, rats, dogs, monkeys); assay type: in vivo, and monkeys; details: mouse, rat, dog, monkey, plasma, po, 3 mg/kg; range over mice, rats, dogs, and monkeys; read-out: oral bioavailability
quantity: bioavailability

### Prompt Look at this molecule and give its reported bioavailability. COc1cc2nccc(Oc3ccc(NC(=O)NC4CC4)c(Cl)c3)c2cc1C(N)=O [lenvatinib, Lenvatinib]
### Response 64.4 to 78.4%

----------
Assay: PK study in rats (intravenous and oral)
Type: in vivo
Settings: male, Sprague-Dawley, rat, plasma, oral 30 mg/kg
Procedure: Sprague–Dawley male rats were purchased from Charles River Japan, Inc., and were used for the PK study after 8 days of an acclimatization period. Rats were 8 weeks old when lenvatinib was dosed and the body weight range was 0.28–0.31 (kg). Rats were fasted a day before the PK study and feeding was resumed 4 h postdose. […]
quantity: MRT (h)
Field format: number, assumed h, no unit text.

### Prompt Look at this molecule and give its reported MRT. COc1cc2nccc(Oc3ccc(NC(=O)NC4CC4)c(Cl)c3)c2cc1C(N)=O
### Response 6.86

----------
test: PK study in dogs (intravenous and oral); format: in vivo; conditions: male, beagle, dog, plasma, oral 3 mg/kg vs intravenous 3 mg/kg, read-out: F (oral bioavailability)
quantity: bioavailability (%)
Field format: number, assumed %, no unit text.

### Prompt Look at this molecule and give its reported bioavailability. COc1cc2nccc(Oc3ccc(NC(=O)NC4CC4)c(Cl)c3)c2cc1C(N)=O [lenvatinib, Lenvatinib]
### Response 70.4

----------
assay: PK study in rats (intravenous and oral); type: in vivo; conditions: male, Sprague-Dawley, rat, plasma, oral 10 mg/kg
quantity: MRT (h)
Field format: number, assumed h, no unit text.

### Prompt Look at this molecule and give its reported MRT. COc1cc2nccc(Oc3ccc(NC(=O)NC4CC4)c(Cl)c3)c2cc1C(N)=O
### Response 6.31

----------
assay: PK study in rats (intravenous and oral); format: in vivo; conditions: male, Sprague-Dawley, rat, plasma, oral 3 mg/kg vs intravenous 3 mg/kg, read-out: F (oral bioavailability)
quantity: bioavailability
Remember to follow the number with its unit.

### Prompt Look at this compound and give its reported bioavailability. COc1cc2nccc(Oc3ccc(NC(=O)NC4CC4)c(Cl)c3)c2cc1C(N)=O
### Response 68.7%

----------
test: PK study in mice (intravenous and oral); assay type: in vivo; conditions: female, BALB/cAnNCrj-nu/nu, mouse, plasma, oral 3 mg/kg vs intravenous 3 mg/kg, read-out: F (oral bioavailability)
quantity: bioavailability
Remember to follow the number with its unit.

### Prompt Look at this molecule and give its reported bioavailability. COc1cc2nccc(Oc3ccc(NC(=O)NC4CC4)c(Cl)c3)c2cc1C(N)=O
### Response 64.4%

----------
system: plasma protein; test: in vitro plasma protein binding, dogs; format: in vitro ADME; details: dog plasma, 0.3 μg/mL
quantity: fraction unbound at 0.3 μg/mL
When you answer, write just the number.

### Prompt Look at this compound and give its reported fraction unbound at 0.3 μg/mL. COc1cc2nccc(Oc3ccc(NC(=O)NC4CC4)c(Cl)c3)c2cc1C(N)=O
### Response 0.084

----------
test: PK study in monkeys (intravenous and oral); assay type: in vivo, cynomolgus monkeys; conditions: male, cynomolgus, cynomolgus monkey, plasma, oral 3 mg/kg
quantity: AUC(0-inf) (ng·h/mL)
Field format: number, assumed ng·h/mL, no unit text.

### Prompt Look at this molecule and give its reported AUC(0-inf). COc1cc2nccc(Oc3ccc(NC(=O)NC4CC4)c(Cl)c3)c2cc1C(N)=O [lenvatinib, Lenvatinib]
### Response 10300

----------
assay: PK study in dogs (intravenous and oral); format: in vivo; details: male, beagle, dog, plasma, intravenous 3 mg/kg, read-out: Vdss
quantity: Vd
Remember to follow the number with its unit.

### Prompt Look at this compound and give its reported Vd. COc1cc2nccc(Oc3ccc(NC(=O)NC4CC4)c(Cl)c3)c2cc1C(N)=O
### Response 1.61 L/kg

----------
assay: PK study in dogs (intravenous and oral); assay type: in vivo; details: male, beagle, dog, plasma, oral 3 mg/kg
quantity: AUC(0-inf) (ng·h/mL)
Field format: number, assumed ng·h/mL, no unit text.

### Prompt Look at this molecule and give its reported AUC(0-inf). COc1cc2nccc(Oc3ccc(NC(=O)NC4CC4)c(Cl)c3)c2cc1C(N)=O [lenvatinib, Lenvatinib]
### Response 5480

----------
assay: PK study in mice (intravenous and oral); type: in vivo; details: female, BALB/cAnNCrj-nu/nu, mouse, plasma, intravenous 3 mg/kg, read-out: CLtot (converted)
quantity: clearance (mL/min/kg)
Field format: number, assumed mL/min/kg, no unit text.

### Prompt Look at this compound and give its reported clearance. COc1cc2nccc(Oc3ccc(NC(=O)NC4CC4)c(Cl)c3)c2cc1C(N)=O
### Response 5.75

----------
assay: PK study in monkeys (intravenous and oral); type: in vivo, cynomolgus monkeys; details: male, cynomolgus monkey, plasma, intravenous 3 mg/kg
quantity: MRT (h)
Field format: number, assumed h, no unit text.

### Prompt Look at this compound and give its reported MRT. COc1cc2nccc(Oc3ccc(NC(=O)NC4CC4)c(Cl)c3)c2cc1C(N)=O
### Response 3.32
